Data provenance is the MegaScale stability set (Tsuboyama et al. 2023).

Reported folding stability dG values for the following variants.
B1: HEEH_KT_rd6_0007 (parent)
chain: SIEEEIKKAEEAKEKGKTFIHGDFVATTEELLDELLKRLRKKL

- Variants of: B1
- protocol_summary: folding stability dG (cDNA display proteolysis); higher = more stable
- settings: PBS, room temperature
Number only, in kcal/mol; omit the unit.

Observe how each entry below is paired with its result.
• I20R = 0.918
• H21E = 0.742
• H21Y = 1.76

Task: Please supply the value of reported folding stability dG for the item `K8D`
Output: 0.721

Task: Indicate the recorded folding stability dG value for this variant: `G22A`
Output: 0.902

Task: Assign folding stability dG to the following record: `D23M`
Output: 1.26

Task: Please report the measured folding stability dG for `L43G`
Output: 0.444

Task: Return reported folding stability dG. Input variant: `E10I`
Output: 1.32

Task: Provide one value: measured folding stability dG of `A9F`
Output: 0.698

Task: Using the record for `R38F` , state its measured folding stability dG.
Output: 1.83

Task: Quick one: give measured folding stability dG for `G22H`
Output: 1.02

Task: Retrieve folding stability dG measured for `E10A` and print it.
Output: 0.805

Task: Assign folding stability dG to the following record: `K8T`
Output: 0.724

Task: Give me measured folding stability dG, please, for this variant: `D23S`
Output: 1.36
